Source listed as patent EP4725957A1.

Tested on: Klebsiella pneumoniae KPN+19-15
Type: cell-based
Settings: KPN+19-15
Description: The minimal inhibitory concentration (MIC) was determined by the broth microdilution method according to the recommended procedures of the Clinical and Laboratory Standards Institute (CLSI). An appropriate amount of the cyclic lipopeptide compounds prepared in Examples 1-120 and the reference standards were weighed and dissolved in sterile pure water. […]
Bridge positions count the residues as written; N and C are the ends. Square brackets hold non-standard residues; d marks the D form. Peptide text beside a SMILES is read from it. * marks the point of attachment. Dab(CH2SO3H) = N[C@@H](CCNCS(=O)(=O)O)C(=O)O; Heptanoyl(6-Me) = CC(C)CCCCC(=O)*; Nonanoyl = CCCCCCCCC(=O)*; X1 = CC[C@H](C)CCCCC(=O)*; dDab = NCC[C@@H](N)C(=O)O; Heptanoyl = CCCCCCC(=O)*; Orn = NCCC[C@H](N)C(=O)O; dDap = NC[C@@H](N)C(=O)O; Dab = NCC[C@H](N)C(=O)O; Dap = NC[C@H](N)C(=O)O
assay endpoint: MIC (µg/mL)
Numbers only, in µg/mL.

Use these answered entries as a reference point.
INSERT INTO results (compound, assay_endpoint, unit, assay_value) VALUES
  ('CC[C@H](C)CCCCC(=O)N[C@@H](CCN)C(=O)N[C@H](C(=O)N[C@H](CN)C(=O)N[C@H]1CCNC(=O)[C@H]([C@@H](C)O)NC(=O)[C@H](CCN)NC(=O)[C@H](CCN)NC(=O)[C@H](CC(C)C)NC(=O)[C@@H](Cc2ccccc2)NC(=O)[C@H](CCN)NC1=O)[C@@H](C)O [Compound 31] (X1-[Dab]T[dDap][Dab][Dab][dF]L[Dab][Dab]T; lactam 4-C)', 'MIC', 'µg/mL', 0.03),
  ('CC(C)CCCCC(=O)N[C@@H](CCN)C(=O)N[C@H](C(=O)N[C@H](CO)C(=O)N[C@H]1CCNC(=O)[C@H]([C@@H](C)O)NC(=O)[C@H](CCNCS(=O)(=O)O)NC(=O)[C@H](CCN)NC(=O)[C@H]([C@@H](C)O)NC(=O)[C@@H](Cc2ccccc2)NC(=O)[C@H](CCN)NC1=O)[C@@H](C)O [Compound 111] ({Heptanoyl(6-Me)}-[Dab]T[dS][Dab][Dab][dF]T[Dab][Dab(CH2SO3H)]T; lactam 4-C)', 'MIC', 'µg/mL', 0.125),
  ('CCCCCCC(=O)N[C@@H](CCN)C(=O)N[C@H](C(=O)N[C@H](CO)C(=O)N[C@H]1CCNC(=O)[C@H]([C@@H](C)O)NC(=O)[C@H](CCN)NC(=O)[C@H](CCCN)NC(=O)[C@H]([C@@H](C)O)NC(=O)[C@@H](Cc2ccccc2)NC(=O)[C@H](CCN)NC1=O)[C@@H](C)O [Compound 79] (Heptanoyl-[Dab]T[dS][Dab][Dab][dF]T[Orn][Dab]T; lactam 4-C)', 'MIC', 'µg/mL', 0.5),
  ('CCCCCCC(=O)N[C@@H](CCN)C(=O)N[C@H](C(=O)N[C@@H](CCCN)C(=O)N[C@H]1CCNC(=O)[C@H]([C@@H](C)O)NC(=O)[C@H](CCN)NC(=O)[C@H](CCN)NC(=O)[C@H](CC(C)C)NC(=O)[C@@H](Cc2ccccc2)NC(=O)[C@H](CCN)NC1=O)[C@@H](C)O [Compound 49] (Heptanoyl-[Dab]T[Orn][Dab][Dab][dF]L[Dab][Dab]T; lactam 4-C)', 'MIC', 'µg/mL', 0.03),
  ('CC[C@H](C)CCCCC(=O)N[C@@H](CCN)C(=O)N[C@H](C(=O)N[C@H](CO)C(=O)N[C@H]1CCNC(=O)[C@H]([C@@H](C)O)NC(=O)[C@H](CCN)NC(=O)[C@H](CCCN)NC(=O)[C@H]([C@@H](C)O)NC(=O)[C@@H](Cc2ccccc2)NC(=O)[C@H](CCN)NC1=O)[C@@H](C)O [Compound 76] (X1-[Dab]T[dS][Dab][Dab][dF]T[Orn][Dab]T; lactam 4-C)', 'MIC', 'µg/mL', 0.5),
  ('CCCCCCCCC(=O)N[C@@H](CCN)C(=O)N[C@H](C(=O)N[C@@H](CCCN)C(=O)N[C@H]1CCNC(=O)[C@H]([C@@H](C)O)NC(=O)[C@H](CCN)NC(=O)[C@H](CCN)NC(=O)[C@H](CC(C)C)NC(=O)[C@@H](Cc2ccccc2)NC(=O)[C@H](CCN)NC1=O)[C@@H](C)O [Compound 50] (Nonanoyl-[Dab]T[Orn][Dab][Dab][dF]L[Dab][Dab]T; lactam 4-C)', 'MIC', 'µg/mL', 0.03),
  ('CCCCCCCCC(=O)N[C@@H](CN)C(=O)N[C@H](C(=O)N[C@H](CCN)C(=O)N[C@H]1CCNC(=O)[C@H]([C@@H](C)O)NC(=O)[C@H](CCN)NC(=O)[C@H](CCN)NC(=O)[C@H](CC(C)C)NC(=O)[C@@H](CC(C)C)NC(=O)[C@H](CCN)NC1=O)[C@@H](C)O [Compound 100] (Nonanoyl-[Dap]T[dDab][Dab][Dab][dL]L[Dab][Dab]T; lactam 4-C)', 'MIC', 'µg/mL', 0.06),
  ('CC(C)CCCCC(=O)N[C@@H](CCN)C(=O)N[C@H](C(=O)N[C@@H](CN)C(=O)N[C@H]1CCNC(=O)[C@H]([C@@H](C)O)NC(=O)[C@H](CCN)NC(=O)[C@H](CCN)NC(=O)[C@H]([C@@H](C)O)NC(=O)[C@@H](Cc2ccccc2)NC(=O)[C@H](CCNCS(=O)(=O)O)NC1=O)[C@@H](C)O [Compound 118] ({Heptanoyl(6-Me)}-[Dab]T[Dap][Dab][Dab(CH2SO3H)][dF]T[Dab][Dab]T; lactam 4-C)', 'MIC', 'µg/mL', 0.125);

Now for another entry.
Item: CC(C)CCCCC(=O)N[C@@H](CCN)C(=O)N[C@H](C(=O)N[C@H](CO)C(=O)N[C@H]1CCNC(=O)[C@H]([C@@H](C)O)NC(=O)[C@H](CCCN)NC(=O)[C@H](CCN)NC(=O)[C@H]([C@@H](C)O)NC(=O)[C@@H](Cc2ccccc2)NC(=O)[C@H](CCN)NC1=O)[C@@H](C)O [Compound 87] ({Heptanoyl(6-Me)}-[Dab]T[dS][Dab][Dab][dF]T[Dab][Orn]T; lactam 4-C) | MIC: 0.5
